System: MOLT-4
Test: NCI tumour cell line growth inhibition, 48 h
The source made the active and inactive calls. Rule as the data show it: active = GI50 up to about 1.1 µM and inactive = higher.
Outcomes: Yes (active), No (inactive)

COMPOUND	CAT
CCOC(=O)CC[C@H](N)C(=O)N[C@H](Cc1ccc(N(CCCl)CCCl)cc1)C(=O)OCC	No
Cc1c(F)c(N)c2c(=O)cc(-c3ccc(NC(=O)CN(C)C)c(F)c3)oc2c1F	No
C(=C(c1ccc(OC2CCCCO2)cc1)c1ccc(OC2CCCCO2)cc1)c1ccccc1 (centres undefined)	Yes
CC(=O)N1C(=O)/C(=C\C(=O)c2ccc(Cl)cc2)c2ccccc21	No
C=CC[C@H](C[C@H](C[C@H](C[C@H](C[C@H](C[C@H](C[C@H](C[C@H](C[C@H](C[C@H](CCCCC)OC)OC)OC)OC)OC)OC)OC)OC)OC)OC	No
O=C1CSC(/C=C/c2ccccc2)N1c1ccc(-c2ccc(-n3c(-c4ccccc4)nc4ccccc4c3=O)cc2)cc1 (centres undefined)	No
CCc1cccc(C(C)C)c1NC(=O)C(=O)C(Cc1nc2ccccc2nc1O)C(=O)OC (centres undefined)	No
O=C(Nn1c(-c2ccccc2)nc2ccccc2c1=O)c1ccc(Cl)cc1	No
COc1ccc(S(=O)(=O)N2C(=O)CCC2C(=O)NN)cc1 (centres undefined)	No

----------
Tested on: A498
Test: NCI tumour cell line growth inhibition, 48 h
Active and inactive are the calls of the source. Rule as the data show it: active = GI50 up to about 1.1 µM and inactive = higher.
Each entry below carries its recorded GI50.

COMPOUND	GI50
Cc1ccc(C)c(NC(=O)CC2C(=O)Nc3ccccc3S2(=O)=O)c1 (stereo unspecified)	30.2 µM (inactive)
O=C1c2ccccc2C(=O)c2c(O)c(NCCNCCO)cc(O)c21	7.26 µM (inactive)
S=C(c1c[nH]c2ccccc12)N1CCN(Cc2ccccc2)CC1	19.2 µM (inactive)
N#CCCN(CCC#N)c1ccc(/C=C2\N=C(CN3C(=O)c4ccccc4C3=O)OC2=O)cc1	> 100 µM (inactive)
O=C1Cc2c([nH]c3c(Br)cccc23)-c2ccccc2N1	> 100 µM (inactive)
NC(=O)C(=CN1CC(=O)NC1=S)C(N)=O	> 100 µM (inactive)
CC(C)(C)C(=O)CC1=Nc2ccccc2SC1(O)CC(=O)C(C)(C)C (stereo unspecified)	> 100 µM (inactive)
CCOC(=O)c1csc(NC(=O)C(C)N2CCOCC2)n1 (stereo unspecified)	> 100 µM (inactive)
COc1ccc(/C=C/C(=O)c2cc(C(C)(C)C)c(O)c(C(C)(C)C)c2)cc1OC	15 µM (inactive)
Cc1cc(C)c(S(=O)(=O)ONC(=O)OC(C)(C)C)c(C)c1	> 100 µM (inactive)
COCc1c(CO)cnc(C)c1OC1OC(CO)C(O)C(O)C1O (stereo unspecified)	> 100 µM (inactive)

----------
Test system: CCRF-CEM
Test: NCI tumour cell line growth inhibition, 48 h
Active and inactive are the calls of the source. No stated cut-off is given here; in the data, active = GI50 up to about 1.1 µM and inactive = higher.
Each entry below carries its recorded GI50.

COMPOUND	GI50
NC(CSCc1ccccc1)C(=O)O (stereo not drawn)	> 100 µM (inactive)
CCS(CC)(CC)CC1CCCC2=CCC(P(=O)(c3ccccc3)c3ccccc3)CC21 (stereo not drawn)	6.78 µM (inactive)
O=C1/C(=C/c2ccc(C(=O)O)cc2)CNC/C1=C\c1ccc(C(=O)O)cc1	> 100 µM (inactive)
CC12CCC(C(=O)O1)C(C)(C)O2 (stereo not drawn)	> 100 µM (inactive)
O=C(O)CSc1nnc(/C=C/c2ccccc2)[nH]1	> 100 µM (inactive)
CCCC(O)c1ccc2[nH]c3c(C)cc([N+](=O)[O-])c(C)c3c2c1 (stereo not drawn)	> 100 µM (inactive)
CC(=O)N(CN1C(=O)CCC1C(=O)O)c1ccc(C)cc1 (stereo not drawn)	> 100 µM (inactive)
Fc1nc(F)nc(-c2c3ccccc3c3n2CCS3)n1	33.1 µM (inactive)

----------
Test system: RXF 631
Assay: NCI tumour cell line growth inhibition, 48 h
Active and inactive are the calls of the source. Cut-off read from the data, not from the text of the source: active = GI50 up to about 1.1 µM and inactive = higher.
Outcomes: y for active, n for inactive

COMPOUND	CAT
O=C1C=CC2(CCC23C=CC(=O)O3)O1 (stereo not given)	n
C/N=C(\NC(=S)N(C)C)N(C)C	n
O=C1c2ccccc2C2(O)Nc3cc(O)ccc3C12O (stereo not given)	n
N#Cc1cccc(C2C(=O)c3ccc(C(=O)c4ccc5c(c4)C(=O)N(c4ccc(Oc6ccc(N7C(=O)c8ccc(C(=O)c9ccc%10c(c9)C(=O)N(c9cccc(C#N)c9)C%10=O)cc8C7=O)cc6)cc4)C5=O)cc3C2=O)c1 (stereo not given)	n
Clc1ccc2nc(-c3ccccc3)nc(Cl)c2c1	n
Cc1ccc(NC(=O)/C(=N\NC(N)=S)C(C#N)c2ccccc2C)cc1C (stereo not given)	n
Cc1cc(C)c(S(=O)(=O)ONC(=O)OC(C)(C)C)c(C)c1	n
COC1=CC(=O)C2C(C1=O)C(c1ccc(OC)c(OC)c1)[C@H]2C (stereo not given in full)	n
COc1cccc2c1C(=N)c1c(O)c3c(c(O)c1C2=O)C[C@@](O)(C(C)=O)C[C@@H]3OC1CC(N)C(O)C(C)O1 (stereo not given in full)	y
O=[N+]([O-])c1ccc2nc(/C(=N/Nc3ccccc3)C(O)c3ccco3)c(O)nc2c1 (stereo not given)	n

----------
Tested on: HCC 2998
Assay: NCI tumour cell line growth inhibition, 48 h
Activity calls are given as the source filed them. No stated cut-off is given here; in the data, active = GI50 up to about 1.1 µM and inactive = higher. Peptide text beside a SMILES is read from it. * marks the point of attachment. OSu = O=C1CCC(=O)N1O*
Outcomes: active, inactive

MOLECULE	CAT
O=C(Nc1ccc(F)cc1)C(=O)C(C1OC(=O)c2ccccc21)[N+](=O)[O-] (stereo not drawn)	inactive
COc1cc2ccnc3c2c(c1OC)-c1coc(SC)c1-3	inactive
N[C@H](C(=O)O)[C@@H](Cl)CC(=O)O	inactive
CN1CCC(c2c(O)cc(O)c3c(=O)cc(-c4ccccc4Cl)oc23)C(O)C1 (stereo not drawn)	active
CC1=C[C@H](C[C@]2(C)c3c(c4c(C)cccc4oc3=O)O[C@@H]2C)OC1=O	inactive
C/C(=N/NC(=S)N1CCCCC1)c1cccc(/C(C)=N\NC(=S)N2CCCCC2)n1	inactive
COC(=O)CC(SCCO)SCCO	inactive
CC(=O)N1C(=O)/C(=C\C(=O)c2ccc(Cl)cc2)c2ccccc21	inactive
OC1(c2ccccc2)CC2CCC(C1)N2CCCC(O)(c1ccccc1)c1ccccc1 (stereo not drawn)	inactive
Cc1cc(C)c2c(c1)CC1(Cc3c(C)ccc(C)c3C1=O)C2=O (stereo not drawn)	inactive
NCCCCC(NC(=O)C(N)Cc1ccc(O)cc1)C(=O)NC(CCCCN)C(=O)NC(CCCCN)C(=O)ON1C(=O)CCC1=O (stereo not drawn) (H-YKKK-OSu; configuration not given here)	inactive
O=S(=O)(CCCCl)SCCCCl	inactive
Cc1ccc(-c2c(C#N)c(S)n(NS(=O)(=O)c3ccccc3)c(=O)c2C#N)cc1	inactive

----------
System: KM12
Test: NCI tumour cell line growth inhibition, 48 h
Active and inactive are the calls of the source. Rule as the data show it: active = GI50 up to about 1.1 µM and inactive = higher.

COMPOUND	GI50
CSc1c(C(=O)Nc2ccc(Cl)cc2)c(N)nn1-c1ccccc1	> 100 µM (inactive)
SCc1ccc(-c2ccc(CS)cc2)cc1	3.11 µM (inactive)
COc1ccc2c(c1)[n+]([O-])c1cc(C#N)ccc1[n+]2[O-]	2.38 µM (inactive)
Cc1cccc(-c2nnc3s/c(=C\c4ccc(N(C)C)cc4)c(=O)n23)c1	> 100 µM (inactive)
O=C1CSC(/C=C/c2ccccc2)N1c1ccc(-c2ccc(-n3c(-c4ccccc4)nc4ccccc4c3=O)cc2)cc1 (configuration not stated)	17.3 µM (inactive)
C=C(C)CC1(O[Si](C)(C)C)C(=O)C(OCC)=C1OCC (configuration not stated)	> 100 µM (inactive)
C=CCOC(C)(C)C1=CCC(C)CC1 (configuration not stated)	> 100 µM (inactive)
C=CC[C@H](C[C@H](C[C@H](C[C@H](C[C@H](C[C@H](C[C@H](C[C@H](C[C@H](C[C@H](CCCCC)OC)OC)OC)OC)OC)OC)OC)OC)OC)OC	> 100 µM (inactive)
Oc1cc(CN2CCOCCOCCOCCOCC2)c(O)cc1CN1CCOCCOCCOCCOCC1	> 100 µM (inactive)
c1ccc(CSCCc2ccncc2)cc1	> 100 µM (inactive)
CCOC(=O)CCCn1cc(C(=O)OC)nn1	> 100 µM (inactive)
CC(C)=CC(C)C(C(O)CCC1(c2ccoc2)OCCO1)S(=O)(=O)c1ccccc1 (configuration not stated)	> 100 µM (inactive)
COc1ccc2c(c1)CCN1CCc3ccccc3CC21 (configuration not stated)	37.2 µM (inactive)
O=C(Nc1nc(C23CC4CC(CC(C4)C2)C3)cs1)c1cc2c(ccc3ccccc32)oc1=O	> 100 µM (inactive)
CC(C)(C)CNC(=O)NCn1cc(-c2ccccc2)nn1	> 100 µM (inactive)
COc1ccc2[nH]c3c(c2c1)CCN(C)CC3	> 100 µM (inactive)
Cc1c(F)c(N)c2c(=O)cc(-c3ccc(NC(=O)CN(C)C)c(F)c3)oc2c1F	32 µM (inactive)
COc1ccccc1N(CN1C(=O)CCC1C(=O)O)C(C)=O (configuration not stated)	> 100 µM (inactive)
CC(=O)O/N=C(/C)c1ccccc1O	> 100 µM (inactive)
Cc1cc2c(cc1Cl)SC(NNC1=NCCN1)=NS2(=O)=O	> 10 µM (inactive)
CCOC(=O)C(CC/C=C\c1ccccc1)N1CCC[C@H]1C(=O)OC (some centres not stated)	> 100 µM (inactive)
COc1ccccc1NC(=O)C1=C(C)NC(C)=C(C(=O)Nc2ccccc2OC)C1c1ccc(C)cc1	43 µM (inactive)

Hello, the source for this data is ChEMBL document CHEMBL1201862, in case you need it.
